assay-system: Mannose-6-phosphate isomerase (Homo sapiens) (UniProt P34949)
Sequence (P34949 whole entry, looked up): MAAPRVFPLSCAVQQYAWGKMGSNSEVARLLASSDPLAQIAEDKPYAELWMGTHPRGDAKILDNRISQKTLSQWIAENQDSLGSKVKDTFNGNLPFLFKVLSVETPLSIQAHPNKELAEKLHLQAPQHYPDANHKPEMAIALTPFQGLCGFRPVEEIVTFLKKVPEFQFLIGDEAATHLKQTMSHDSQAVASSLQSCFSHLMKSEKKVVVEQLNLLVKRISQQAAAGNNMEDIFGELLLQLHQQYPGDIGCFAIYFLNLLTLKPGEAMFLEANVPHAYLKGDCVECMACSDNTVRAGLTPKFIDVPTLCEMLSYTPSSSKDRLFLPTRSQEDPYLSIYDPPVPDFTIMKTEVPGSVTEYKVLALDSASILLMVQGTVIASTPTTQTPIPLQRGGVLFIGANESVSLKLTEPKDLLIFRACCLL
assay-protocol: MPI inhibition at elevated mannose 6-phosphate – biochemical, fluorescence intensity, high mannose 6-phosphate, primary screen (AID 1220)
settings: recombinant PMI enzyme, coupled fluorescence intensity; at 20 µM
Among all 190,000 compounds or so, about 1,300 (0.68%) were called active. Cut-off read from the data, not from the text of the source: active = inhibition above about 50%; inactive = the rest. For the sample, actives were picked, then their nearest neighbours and some compounds at random.
A correct response names exactly one class from active, inactive

Example entries and their recorded answers appear below.
>>> assigned_class("CC1CCN(S(=O)(=O)c2ccc(C(=O)OCc3ccc4c(c3)OCO4)cc2)CC1")
"inactive"
>>> assigned_class("O=C(NCc1cccnc1)Nc1cccc(F)c1")
"inactive"
>>> assigned_class("Cc1cc(=O)[nH]c(N/N=C/c2ccc([N+](=O)[O-])cc2)n1")
"inactive"

Hi, sorry to bother you, what did the test record for CS(=O)(=O)N(Cc1ccccc1)c1ccc(C(=O)N2CCOCC2)cc1 ?
inactive

Hi, sorry to bother you, what did the test record for N#Cc1cnc2c(-c3ccccc3)c(-c3ccccc3)nn2c1N ?
inactive

Hi, sorry to bother you, what did the test record for CCOC(=O)c1ccccc1N=N/C(C(C)=O)=C(/C)O ?
inactive

Hi, sorry to bother you, what did the test record for Nc1[nH]ncc1-c1ccc(Cl)cc1 ?
inactive
